# tested target: PDGF-AB (Homo sapiens, UniProt P04085;P01127 P04085:87-211,P01127:82-190)
# Sequence (P01127 82-190, chain 2 of 2, other chains not shown): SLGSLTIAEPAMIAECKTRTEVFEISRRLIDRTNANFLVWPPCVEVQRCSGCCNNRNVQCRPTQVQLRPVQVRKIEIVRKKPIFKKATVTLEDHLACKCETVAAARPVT
# protocol summary: filter; specificity control; random RNA 22.0 nM
# condition description: tags: R&D Systems, E. coli; label: 32P; pseudoknot (predicted)
readout: Kd (nM)
Numbers only here, please. The scale is nM.

stdin: Consider the binder GGGAGGACGAUGCGGUGGUCUCCCAAUUCUAAACUUUCUCCAUCGUAUC (ssRNA, 2'-F pyrimidines) [14F3'T] and give its measured Kd.
stdout: 50

Origin of the recorded values: patent US20030180744
